Test system: Saccharomyces cerevisiae
procedure_details: protein stability index of tFT-peptide fusion (C-terminal peptide) (PSI (0-1 scale)); higher = more stable (slower turnover)
details: genetic background: wild type; temperature: 30 C
Bucketed by reported protein stability index, buckets being group 1 = under 0.2, group 2 = from 0.2 up to 0.3, group 3 = 0.3 and over

Record excerpt, results attached:
residue_sequence: YYLVKCVYLRTT
category_label: group 1

residue_sequence: IYFFFFALHFPN
category_label: group 3

residue_sequence: RARLRFASLRAF
category_label: group 1

residue_sequence: SRPGRWRLYYVS
category_label: group 3

residue_sequence: GSWGGGWRYVGW
category_label: group 3

Q: Dear colleague, I would appreciate it if you could identify the bin for LYFLLGSLVFVF and reply at your convenience.
Ans: group 2

Q: Now the same for SLLLLSLCRFVG
Ans: group 2

Q: Now the same for LFLVVVVRAGGF
Ans: group 2

Q: Now the same for PLLPLPRFPLFA
Ans: group 3

Q: Now the same for LLFPRVLVLCFS
Ans: group 1

* * *

System: Saccharomyces cerevisiae
procedure_details: protein stability index of tFT-peptide fusion (C-terminal peptide) (PSI (0-1 scale)); higher = more stable (slower turnover)
details: genetic background: das1 deletion; temperature: 37 C
Bucketed by reported protein stability index, buckets being bottom bin: < 0.5; middle bin: ≥ 0.5 and < 0.7; top bin: ≥ 0.7

Record excerpt, results attached:
residue_sequence: LRSVVFFCRTLL
experimental_target: Saccharomyces cerevisiae
category_label: top bin
--
residue_sequence: VTLLCRFFMLVF
experimental_target: Saccharomyces cerevisiae
category_label: middle bin
--
residue_sequence: VCLLFRFCCWFW
experimental_target: Saccharomyces cerevisiae
category_label: bottom bin
--
residue_sequence: LSLGVGSDAEGG
experimental_target: Saccharomyces cerevisiae
category_label: top bin

Q: Dear colleague, I would appreciate it if you could identify the bin for DFIVVIRFIQII and reply at your convenience.
Ans: bottom bin

Q: Now the same for LPPHLPFPLSAA
Ans: top bin

Q: Now the same for LFFFFLPHLILL
Ans: bottom bin

Q: Now the same for CDSRIRKIWSYL
Ans: top bin

Q: Now the same for PRFWFYLSYSVH
Ans: middle bin

Q: Now the same for LVCLFFLSSLFF
Ans: middle bin

* * *

Tested on: Saccharomyces cerevisiae
procedure_details: protein stability index of tFT-peptide fusion (C-terminal peptide) (PSI (0-1 scale)); higher = more stable (slower turnover)
details: genetic background: doa10 deletion; temperature: 30 C
observed_property: protein stability index
Give the figure by itself; no unit, no explanation.

residue_sequence: LASWVVFIWFLW
protein stability index: 0.281

residue_sequence: FFFWLLCAGWLL
protein stability index: 0.551

residue_sequence: SIPVWTIELFAT
protein stability index: 0.335

Okay, next one:
Q: What protein stability index value was documented for this sequence, LNALSHCRAICS ?
Ans: 0.238

* * *

Form field: protein stability index (one value per entry).
System: Saccharomyces cerevisiae
procedure_details: protein stability index of tFT-peptide fusion (C-terminal peptide) (PSI (0-1 scale)); higher = more stable (slower turnover)
details: genetic background: wild type; temperature: 30 C
Give the figure by itself; no unit, no explanation.

residue_sequence: WLVGSGGVWSGR
observed_property: protein stability index
numeric_value: 0.706
--
residue_sequence: NQSSTSEENSGG
observed_property: protein stability index
numeric_value: 0.653
--
residue_sequence: PLPPPPRLPPRH
observed_property: protein stability index
numeric_value: 0.677
--
residue_sequence: FPSSLPSAFPCP
observed_property: protein stability index
numeric_value: 0.675
--
residue_sequence: EGTSYWDPSVPG
observed_property: protein stability index
numeric_value: 0.741

Q: What protein stability index value was documented for this sequence, EPKLPPCPTPPS ?
Ans: 0.721

Q: Now the same for PNLTYNTLRVVL
Ans: 0.638

Q: Now the same for NLYENQDHETYR
Ans: 0.651

Q: Now the same for PRFPYGPFDFSI
Ans: 0.669

Q: Now the same for PFAGLFFFFVPF
Ans: 0.58

Q: Now the same for RARLRFASLRAF
Ans: 0.176

Q: Now the same for DQVSGYNVWFGT
Ans: 0.698

* * *

Tested on: Saccharomyces cerevisiae
procedure_details: protein stability index of tFT-peptide fusion (C-terminal peptide) (PSI (0-1 scale)); higher = more stable (slower turnover)
details: genetic background: doa10 deletion; temperature: 30 C
observed_property: protein stability index
Give the figure by itself; no unit, no explanation.

residue_sequence: VDFCLLFLLLLV
protein stability index: 0.425

Q: What protein stability index value was documented for this sequence, CVFFPFLGVCYV ?
Ans: 0.288

Q: Now the same for GGWGVFGVWVWM
Ans: 0.186

Q: Now the same for TVLGRDFALSVC
Ans: 0.308

Q: Now the same for WPPPPPSLLLLC
Ans: 0.127

* * *

System: Saccharomyces cerevisiae
procedure_details: protein stability index of tFT-peptide fusion in wild type (PSI (0-1 scale)); higher = more stable (slower turnover)
details: genetic background: wild type
observed_property: protein stability index

residue_sequence: VRGTVGGWRLVG
protein stability index: 0.151
--
residue_sequence: LKILRQKMNHQNG
protein stability index: 0.657
--
residue_sequence: AITLPMCPLLLRA
protein stability index: 0.171
--
residue_sequence: RSLKVLLPLYFR
protein stability index: 0.27
--
residue_sequence: RSLRVLLPLYFN
protein stability index: 0.107
--
residue_sequence: NLIQPLPVQFLN
protein stability index: 0.0875

Q: What protein stability index value was documented for this sequence, ARWRVGLWRGKS ?
Ans: 0.653

Q: Now the same for GLRMCSVGCWFR
Ans: 0.248

Q: Now the same for PDKRNHTIKLLN
Ans: 0.176

Q: Now the same for VRGAVGGWRDVG
Ans: 0.606

Q: Now the same for CLVSLPILLGFR
Ans: 0.391

Q: Now the same for PSLAASQWRVVG
Ans: 0.184

Q: Now the same for ARWRVGLNRGAS
Ans: 0.68

Q: Now the same for VRGAVGRWRLVG
Ans: 0.159

Q: Now the same for RSLRVMLPLYFR
Ans: 0.217

Q: Now the same for FRGAVGGWRLVG
Ans: 0.192

Q: Now the same for FSMRWTFRCWVN
Ans: 0.17

Q: Now the same for FSMRWTFRYWVNV
Ans: 0.147

Q: Now the same for KMHKKGQKQKIN
Ans: 0.1

Q: Now the same for PDKRNHLIKLLS
Ans: 0.102

Q: Now the same for LKILRQKMNHQNM
Ans: 0.601

Q: Now the same for RALRVLLPLYFR
Ans: 0.353

Q: Now the same for CTICGYKFRTNN
Ans: 0.27

Q: Now the same for RVTRLDEIYFRI
Ans: 0.685

Q: Now the same for PDKINHLIKLLN
Ans: 0.135

Q: Now the same for ARWRVGLWRGIS
Ans: 0.109

* * *

Tested on: Saccharomyces cerevisiae
procedure_details: protein stability index of tFT-peptide fusion (C-terminal peptide) (PSI (0-1 scale)); higher = more stable (slower turnover)
details: genetic background: wild type; temperature: 30 C
Respond with Fulfilled for protein stability index values of 0.7 and above, Not fulfilled for values below.

Record excerpt, results attached:
residue_sequence: YEEALKLGWDKN [OYE2 C-terminal 12 aa]
category_label: Fulfilled

residue_sequence: LRTTSSMEKKLN [ALG3 C-terminal 12 aa]
category_label: Not fulfilled

residue_sequence: VTLLQMKKKLEG [PET20 C-terminal 12 aa]
category_label: Fulfilled

Q: Threshold query (protein stability index >= 0.7) on DVEVVCRQNNFV [YDR327W C-terminal 12 aa]
Ans: Fulfilled

* * *

System: Saccharomyces cerevisiae
procedure_details: protein stability index of tFT-peptide fusion in deletion strain of DAS1 (PSI (0-1 scale)); higher = more stable (slower turnover)
Form field: protein stability index (one value per entry).
Give the figure by itself; no unit, no explanation.

Illustrative cases are given below, each with its answer.
residue_sequence: PDKRNHLIKLLS
numeric_value: 0.653
--
residue_sequence: CSSCGYKFRTNN
numeric_value: 0.695
--
residue_sequence: PDKRNTLIKLLN
numeric_value: 0.599
--
residue_sequence: RLIQCLPVQFLN
numeric_value: 0.571

Q: What protein stability index value was documented for this sequence, TVVYLSCVACIN ?
Ans: 0.0307

Q: Now the same for LKILRQKMNHQP
Ans: 0.677

Q: Now the same for KKHKKGQSQKIN
Ans: 0.676

Q: Now the same for LKITRQKMNHQN
Ans: 0.674

Q: Now the same for FSMMWTFRYWVN
Ans: 0.354

Q: Now the same for LVVYLSCIACIN
Ans: 0.0218

Q: Now the same for CTSCGYKIRTNN
Ans: 0.704

Q: Now the same for LHILRQKMNHQN
Ans: 0.662

Q: Now the same for LVVYLHCVACIN
Ans: 0.0327

Q: Now the same for RSIQPLPVQFLN
Ans: 0.643

Q: Now the same for ARWHVGLWRGAS
Ans: 0.71

Q: Now the same for VRGAVGGWRDVG
Ans: 0.629

Q: Now the same for HTSCGYKFRTNN
Ans: 0.677

Q: Now the same for LKINRQKMNHQN
Ans: 0.682

Q: Now the same for ARWRVGLQRGAS
Ans: 0.69

Q: Now the same for KKHKKGQKQCIN
Ans: 0.585

Q: Now the same for ARWRVGLWRGASQ
Ans: 0.646

Q: Now the same for LVVYLSKVACIN
Ans: 0.38
